# assay.notes: promoters of myeloid differentiation in arrested cells, primary screen, cell-based, GFP/MAC1 double positive, flow cytometry, validation set (AID 588685);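 note: compound exposure lasts four days before antibody staining and flow analysis; 0% = DMSO wells and 100% = 5 µM fulvestrant positive control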
# condition.summary: ER-HoxA9 marrow cells, hits give high values, normalized: vehicle 0, fulvestrant 100
Recorded differentiation response for the following molecules
value.kind: differentiation response (%)

{"molecule": "C[C@H]1O[C@H]1P(=O)(O)O", "observed.value": 12.8}
{"molecule": "O=c1cc(Cn2ccnc2)c2cc3c(cc2o1)CCC3", "observed.value": 48.8}
{"molecule": "CC1(C(=O)O)CCC(C(=O)NC2CCCCCC2)C1(C)C (stereo not drawn)", "observed.value": -5.68}
{"molecule": "Cn1c(=O)[nH]c(=O)c2c1nc(Br)n2CCCO", "observed.value": -24.4}
{"molecule": "COc1ccc(Cc2nc(-c3ccc(Br)cc3)no2)cc1", "observed.value": 48.1}
{"molecule": "COc1ccc(C(=O)Nc2nc3ccccc3c(=O)[nH]2)cc1", "observed.value": 0}
{"molecule": "COc1ccc2c(c1)C(=O)CC(c1ccccc1F)O2 (stereo not drawn)", "observed.value": -11.5}
{"molecule": "Cc1ncc([N+](=O)[O-])n1CCO", "observed.value": -9.89}
{"molecule": "CCCC1O[C@@H]2C[C@H]3[C@@H]4CCC5=CC(=O)C=C[C@]5(C)[C@H]4[C@@H](O)C[C@]3(C)[C@]2(C(=O)CO)O1 (stereo partly drawn)", "observed.value": 6.26}
{"molecule": "CN(Cc1ccccc1)CC(O)COc1ccc(CNCc2cccnc2)cc1 (stereo not drawn)", "observed.value": 24}
{"molecule": "C[C@]12CCC(=O)C=C1CC[C@@H]1[C@@H]2CC[C@@]2(C)[C@H]1CC[C@]2(O)C(=O)CO", "observed.value": -3.43}
{"molecule": "Cn1c2[n+](c3ccc(Cl)cc3c1=O)Cc1ccccc1-2", "observed.value": 20.6}
{"molecule": "CC1(C)O[C@@H]2C[C@H]3[C@@H]4CCC5=CC(=O)C=C[C@]5(C)[C@@]4(F)[C@@H](O)C[C@]3(C)[C@]2(C(=O)CO)O1", "observed.value": 40.8}
{"molecule": "CCc1cccc(OC2OC(CO)C(O)C(O)C2NC(C)=O)c1 (stereo not drawn)", "observed.value": 0.92}
{"molecule": "CCS(=O)(=O)CCn1c([N+](=O)[O-])cnc1C", "observed.value": -5.05}
{"molecule": "COc1ccc(C2NC(=O)c3ccccc3N2)cc1OC (stereo not drawn)", "observed.value": -3.43}
{"molecule": "CN(C)C(=O)C12CCC(C)(c3nc4ccccc4nc31)C2(C)C (stereo not drawn)", "observed.value": 1.41}
{"molecule": "CC(=O)Oc1ccc(C2OC(=O)c3ccccc3N2C(C)=O)cc1 (stereo not drawn)", "observed.value": -4.57}
{"molecule": "CCCCC[C@H](O)/C=C/[C@@H]1[C@@H](C/C=C\\CCCC(=O)O)[C@H]2CO[C@@H]1C2", "observed.value": -10.9}
{"molecule": "COc1ccc(NC(=O)C2CSC3c4ccccc4C(=O)N23)cc1 (stereo not drawn)", "observed.value": -0.18}
{"molecule": "COc1ccc(S(=O)(=O)NC(Cc2cnc[nH]2)C(=O)O)cc1 (stereo not drawn)", "observed.value": -20}
{"molecule": "COc1ccc2nc(Nc3nc(CSc4ccc(C)cc4)cc(=O)[nH]3)nc(C)c2c1", "observed.value": -24.4}
{"molecule": "O=C(NCCN1CCOCC1)c1ccc(Cl)cc1", "observed.value": 15.9}
{"molecule": "Cn1c2ccc(CC(=O)O)cc2c2cc(CC(=O)O)ccc21", "observed.value": 8.8}
{"molecule": "COc1ccc(/C=C2\\CCc3ccccc3C2=O)c(OC)c1OC", "observed.value": 31.2}
{"molecule": "CCOC(=O)Cc1c(C)nc(N)[nH]c1=O", "observed.value": 22.7}
{"molecule": "CCSc1nc(O)c(C2OC(=O)c3c2ccc(OC)c3OC)c(=O)n1CC (stereo not drawn)", "observed.value": 20}
{"molecule": "Cc1ccc2c(c1)C(O)(c1c(C)[nH]c3ccccc13)C(=O)N2 (stereo not drawn)", "observed.value": -34.1}
